Source: ChEMBL document CHEMBL1137006

MIC values by entry
System: Enterococcus faecium
Assay: Antibacterial activity against vancomycin-resistant Enterococcus faecium ATCC 700221 by NCCLS method
Assay type: functional

CC(C)NC(=N)c1ccc2[nH]c(-c3ccc(N(C)c4ccc(-c5nc6cc(C(=N)NC(C)C)ccc6[nH]5)cc4)cc3)nc2c1 ... ≤ 0.06 µg/mL
CC(C)NC(=N)c1ccc2[nH]c(-c3ccc(Oc4ccc(-c5nc6cc(C(=N)NC(C)C)ccc6[nH]5)cc4)cc3)nc2c1 ... < 0.06 µg/mL

Turning now to a further molecule:
Enquiry: State MIC on Enterococcus faecium. Entry: "O=C(O)c1cn(C2CC2)c2cc(N3CCNCC3)c(F)cc2c1=O"
Return: > 32 µg/mL
